tested on: SK-MEL-5 melanoma; assay: NCI tumour cell line growth inhibition, 48 h
OUTCOME MEASURE: TGI (nM)

molecule=CN(C)/C=C/c1c2c(nc3ccccc13)C(=O)c1ccccc1C2=O experimental_target="SK-MEL-5 melanoma" outcome_measure=TGI inequality_sign== assay_result=536
molecule=O=C(NC(=O)c1cc2cc(Br)cc(Br)c2oc1=O)Oc1ccccc1 experimental_target="SK-MEL-5 melanoma" outcome_measure=TGI inequality_sign=> assay_result=100000
molecule="COc1cc(C2C3=C(COC3=O)Nc3cc4c(cc32)OCO4)cc2c1OCO2 (centres undefined)" experimental_target="SK-MEL-5 melanoma" outcome_measure=TGI inequality_sign== assay_result=374
molecule=Oc1ccccc1-c1nn2c(CCCCCCCCc3nnc4sc(-c5ccccc5O)nn34)nnc2s1 experimental_target="SK-MEL-5 melanoma" outcome_measure=TGI inequality_sign== assay_result=64800
